biological target: total PD-L1 (tPD-L1) (Homo sapiens, UniProt Q9NZQ7); construct: endogenous in cells; host or cells: HT-29, A-549, MCF-7; assay: Total PD-L1 relative quantification by flow cytometry; assay type: cell-based; details: MCF-7; 24 h; 100 or 10 μM (Table 7); relative to DMSO control
Sequence (Q9NZQ7 19-290): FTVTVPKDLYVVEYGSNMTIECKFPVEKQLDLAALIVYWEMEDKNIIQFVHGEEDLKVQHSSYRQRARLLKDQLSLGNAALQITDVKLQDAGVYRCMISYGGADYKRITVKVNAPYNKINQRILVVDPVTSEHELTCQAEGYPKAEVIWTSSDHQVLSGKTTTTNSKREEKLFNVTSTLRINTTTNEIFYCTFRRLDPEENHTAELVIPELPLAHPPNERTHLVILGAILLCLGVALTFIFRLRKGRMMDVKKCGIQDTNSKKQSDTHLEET
Each entry below carries its reported tPD-L1 relative detection, MCF-7.
MEASUREMENT_LABEL: tPD-L1 relative detection, MCF-7

- Nc1ccc(-c2cn(Cc3cccc(Cl)c3)nn2)cc1: 69 ± 7%
- Nc1ccc(-c2cn(Cc3ccc(Br)cc3)nn2)cc1: >100%
- COc1ccccc1Cn1cc(-c2ccc(N)cc2)nn1: >100%
- Nc1ccc(-c2cn(Cc3ccccc3)nn2)cc1: >100%
- Cc1cccc(Cn2cc(-c3ccc(N)cc3)nn2)c1: >100%
- Nc1ccc(-c2cn(Cc3ccccc3Br)nn2)cc1: >100%
- Nc1ccc(-c2cn(Cc3ccc(Cl)cc3)nn2)cc1: 61 ± 14%
- COc1cccc(Cn2cc(-c3ccc(N)cc3)nn2)c1: >100%
- COc1ccc(Cn2cc(-c3ccc(N)cc3)nn2)cc1: >100%
- Cc1c(COc2ccc(CN3CCCCC3C(=O)O)cc2Br)cccc1-c1ccccc1 (stereo not shown) [BMS-8, reference compound]: 68 ± 5%
